- systemName: Beta-2 adrenergic receptor (Homo sapiens) (UniProt P07550)
- Sequence (P07550 whole entry, looked up): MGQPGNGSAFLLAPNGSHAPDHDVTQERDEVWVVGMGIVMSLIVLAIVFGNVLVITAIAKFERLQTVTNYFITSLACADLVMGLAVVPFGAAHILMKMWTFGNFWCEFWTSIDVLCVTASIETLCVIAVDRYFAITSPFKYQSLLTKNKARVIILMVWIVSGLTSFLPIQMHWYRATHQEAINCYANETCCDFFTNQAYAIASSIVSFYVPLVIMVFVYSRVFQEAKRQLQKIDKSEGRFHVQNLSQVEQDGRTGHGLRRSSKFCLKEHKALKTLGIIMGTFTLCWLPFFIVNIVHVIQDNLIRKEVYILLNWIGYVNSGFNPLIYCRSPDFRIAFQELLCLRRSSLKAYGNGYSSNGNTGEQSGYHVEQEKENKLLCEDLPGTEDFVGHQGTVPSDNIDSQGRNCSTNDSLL
- testMethodNotes: Adrenergic beta2 receptor (ADRB2) small molecule antagonists, cell-based qHTS assay (AID 1963592); further: on the % scale 0 is the no-effect control and ±100 the full control effect; nearly all actives have a fitted effect of over 50% in size
- runParameters: CHO-ADRB2 cells, isoproterenol-stimulated cAMP HTRF ratio, 0.5 h; series mostly up to 92.4 µM
Results filed as inconclusive are left out. Calls of active or inactive are those of the source. The call rests on the fitted dose curve.
quantityName: activity change, negative = inhibition

Example results:
>  <compound>
CC1=C(C)C(=O)C(CCCCC#CCCCC#CCO)=C(C)C1=O

>  <quantityName>
activity change, negative = inhibition

>  <testValue>
inactive

$$$$
>  <compound>
Clc1cc(Cl)c(-c2c(Cl)c(Cl)cc(Cl)c2Cl)cc1Cl

>  <quantityName>
activity change, negative = inhibition

>  <testValue>
inactive

$$$$
>  <compound>
C=CC(=O)OCCOCCOCC

>  <quantityName>
activity change, negative = inhibition

>  <testValue>
inactive

$$$$
>  <compound>
O=C1c2ccccc2C(=O)c2cc(O)ccc21

>  <quantityName>
activity change, negative = inhibition

>  <testValue>
inactive

$$$$
>  <compound>
CCO[Si](CC)(OCC)OCC

>  <quantityName>
activity change, negative = inhibition

>  <testValue>
inactive

$$$$
>  <compound>
CSSc1ccoc1C

>  <quantityName>
activity change, negative = inhibition

>  <testValue>
inactive

$$$$

Lab request: please report activity change, negative = inhibition under test system Beta-2 adrenergic receptor (Homo sapiens) (UniProt P07550) for "C/C(=C(\CCOP(=O)(O)O)SC(=O)c1ccccc1)N(C=O)Cc1cnc(C)nc1N"
2.25% [at 8.39 µM] (inactive)

Lab request: please report activity change, negative = inhibition under test system Beta-2 adrenergic receptor (Homo sapiens) (UniProt P07550) for "CC(C)CCCCCCOC(=O)CCCCC(=O)OCCCCCCC(C)C"
inactive

Lab request: please report activity change, negative = inhibition under test system Beta-2 adrenergic receptor (Homo sapiens) (UniProt P07550) for "Cc1c(N=C=O)cccc1N=C=O"
inactive

Lab request: please report activity change, negative = inhibition under test system Beta-2 adrenergic receptor (Homo sapiens) (UniProt P07550) for "CC(C)C(=O)OC/C=C/c1ccccc1"
inactive
